// data source = patent US4923865A

system: male NMRI mice; experiment: Toxicity, Irwin's test (lethal dose); format: in vivo; conditions: intraperitoneal
Param label: returns True when lethal dose (death of two out of three animals within 48 hours) < 300 mg/kg, returns False otherwise, including exact equality.

>>> group("Cl.O=C(NCCO)c1cccc(Cc2c[nH]cn2)c1O")
"False"
>>> group("CN(C)C(=O)c1cccc(Cc2c[nH]cn2)c1O")
"True"
>>> group("CC(c1c[nH]cn1)c1cccc(C(N)=O)c1O.Cl (stereo not drawn) [B]")
"True"
>>> group("CNC(=O)c1cccc(Cc2c[nH]cn2)c1O.Cl")
"True"
>>> group("Cc1ccc(C(N)=O)c(O)c1Cc1c[nH]cn1")
"True"
>>> group("Cl.NC(=O)c1cccc(Cc2c[nH]cn2)c1O")
"False"
>>> group("NNC(=O)c1cccc(Cc2c[nH]cn2)c1O")
"True"
>>> group("CC(c1c[nH]cn1)c1ccc(O)c(C(N)=O)c1O.Cl (stereo not drawn)")
"True"
>>> group("COc1c(Cc2c[nH]cn2)cccc1C(N)=O.Cl")
"False"
>>> group("NC(=O)c1cc(Cc2c[nH]cn2)ccc1O")
"False"
